Origin of measurements: PubChem BioAssay AID2060626

tested on: 168753-222-R-J1-PDC complex spheroid viability; assay: Anticancer human tumor 168753-222-R-J1-PDC patient-derived bladder carcinoma cell line growth inhibition [CLK]; conditions: second compound 1 µM; first compound 0.00316 µM; active = viability on the fitted dose curve at most 10% of control; inactive = the rest
Possible outcomes: true = active, false = inactive

INSERT INTO measurements (molecule, assayed_target, assigned_category) VALUES
  ('CCc1c2c(nc3ccc(O)cc13)-c1cc3c(c(=O)n1C2)COC(=O)[C@]3(O)CC + CNC(=O)c1ccc(Nc2nc(OC3CCCC3)c3c(-c4ccc5nc(C)oc5c4)c[nH]c3n2)c(OC)c1', '168753-222-R-J1-PDC complex spheroid viability', 'false'),
  ('COc1c(OCCCN2CCOCC2)ccc2c3n(c(=NC(=O)c4cnc(N)nc4)nc12)CCN3 + CN1CCN(c2cc(C(=O)Nc3cc4cc(-c5cnn(C)c5)ccc4cn3)ccn2)CC1', '168753-222-R-J1-PDC complex spheroid viability', 'true'),
  ('Cn1ncnc1[C@H]1c2n[nH]c(=O)c3cc(F)cc(c23)N[C@@H]1c1ccc(F)cc1 + CNC(=O)c1ccc(Nc2nc(OC3CCCC3)c3c(-c4ccc5nc(C)oc5c4)c[nH]c3n2)c(OC)c1', '168753-222-R-J1-PDC complex spheroid viability', 'false');

---

test system: 168753-222-R-J1-PDC complex spheroid viability; experiment: Anticancer human tumor 168753-222-R-J1-PDC cell line growth inhibition [CLK]; details: second compound 1 µM; first compound 1 µM; stronger effect = lower value;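 also: luminescence signal used as surrogate for viable cell amount; viability measured after seven days of drug exposure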
Please respond with t when measured viability, T/C is strictly beneath 30%, and with f in all other cases.

INSERT INTO assay_data (compound, assigned_category) VALUES
  ('CC1COCCN1c1cc(C2(S(C)(=N)=O)CC2)nc(-c2ccnc3[nH]ccc23)n1 (stereo not given) + CNC(=O)c1ccc(Nc2nc(OC3CCCC3)c3c(-c4ccc5nc(C)oc5c4)c[nH]c3n2)c(OC)c1', 'f'),
  ('COc1ccc([C@@H](O)c2cc(-c3ncnc4cc(N5CCOCC5)ccc34)c(F)cc2Cl)nn1 + CNC(=O)c1ccc(Nc2nc(OC3CCCC3)c3c(-c4ccc5nc(C)oc5c4)c[nH]c3n2)c(OC)c1', 't'),
  ('CCCS(=O)(=O)Nc1ccc(F)c(C(=O)c2c[nH]c3ncc(-c4ccc(Cl)cc4)cc23)c1F + CNC(=O)c1ccc(Nc2nc(OC3CCCC3)c3c(-c4ccc5nc(C)oc5c4)c[nH]c3n2)c(OC)c1', 'f'),
  ('CC(CO)NC(=O)c1cc(-c2ccc(Cl)cc2)nn(-c2cnn(C)c2)c1=O (stereo not given) + CNC(=O)c1ccc(Nc2nc(OC3CCCC3)c3c(-c4ccc5nc(C)oc5c4)c[nH]c3n2)c(OC)c1', 'f'),
  ('C#Cc1c(F)ccc2cc(O)cc(-c3ncc4c(N5CC6CCC(C5)N6)nc(OCC56CCCN5CC(F)C6)nc4c3F)c12 (stereo not given) + CN1CCN(c2cc(C(=O)Nc3cc4cc(-c5cnn(C)c5)ccc4cn3)ccn2)CC1', 't'),
  ('C=CC(=O)N1CCN(c2nc(=O)n(-c3c(C)ccnc3C(C)C)c3nc(-c4c(O)cccc4F)c(F)cc23)C(C)C1 (stereo not given) + CNC(=O)c1ccc(Nc2nc(OC3CCCC3)c3c(-c4ccc5nc(C)oc5c4)c[nH]c3n2)c(OC)c1', 'f'),
  ('C=CC(=O)N1CCN(c2nc(=O)n(-c3c(C)ccnc3C(C)C)c3nc(-c4c(O)cccc4F)c(F)cc23)C(C)C1 (stereo not given) + CN1CCN(c2cc(C(=O)Nc3cc4cc(-c5cnn(C)c5)ccc4cn3)ccn2)CC1', 't'),
  ('CCN1CCN(Cc2ccc(Nc3ncc(F)c(-c4cc(F)c5nc(C)n(C(C)C)c5c4)n3)nc2)CC1 + CNC(=O)c1ccc(Nc2nc(OC3CCCC3)c3c(-c4ccc5nc(C)oc5c4)c[nH]c3n2)c(OC)c1', 't'),
  ('O=c1[nH]cc(F)c(=O)[nH]1 + CN1CCN(c2cc(C(=O)Nc3cc4cc(-c5cnn(C)c5)ccc4cn3)ccn2)CC1', 't'),
  ('COC1C=CCC(C)C(C)S(=O)(=O)NC(=O)c2ccc3c(c2)N(CC2CCC21)CC1(CCCc2cc(Cl)ccc21)CO3 (stereo not given) + CN1CCN(c2cc(C(=O)Nc3cc4cc(-c5cnn(C)c5)ccc4cn3)ccn2)CC1', 't');
